Values compiled from paper PMC8648464.

# TESTED_TARGET: E. coli single-stranded DNA binding protein (SSB) (Escherichia coli, UniProt P0AGE0 1-178)
# Sequence (P0AGE0 whole entry): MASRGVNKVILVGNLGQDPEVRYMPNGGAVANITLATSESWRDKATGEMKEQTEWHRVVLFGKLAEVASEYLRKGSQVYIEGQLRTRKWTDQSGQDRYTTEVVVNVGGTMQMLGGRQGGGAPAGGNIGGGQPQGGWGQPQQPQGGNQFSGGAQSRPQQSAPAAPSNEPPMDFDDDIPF
# PROCEDURE_SUMMARY: single-molecule free solution hydrodynamic separation

BINDER: 70nt poly(dT) (ssDNA) DNA: TTTTTTTTTTTTTTTTTTTTTTTTTTTTTTTTTTTTTTTTTTTTTTTTTTTTTTTTTTTTTTTTTTTTTT
DISPLAY_UNIT: nM
Kd: 21.7
